Listing: OD value of selected binders
# experimental-target: T1, recombinant human regenerating islet-derived protein 1α (REG1A) (human, UniProt P05451 23-166, limits assumed)
# T1 construct: also called recombinant human REG1A; recombinant REG1A
# T1 sequence (looked up): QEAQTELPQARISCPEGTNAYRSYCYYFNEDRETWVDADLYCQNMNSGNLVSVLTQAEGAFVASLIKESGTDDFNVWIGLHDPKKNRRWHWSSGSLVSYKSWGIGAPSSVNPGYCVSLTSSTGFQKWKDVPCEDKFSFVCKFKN
# measurement-notes: sandwich ELISA; capture 11D11B11; REG1A 100.00 ng/mL
readout-type: OD value (OD)

>>> result("antibody 21B11D2 (antibody, mouse IgG2b, kappa, V domains shown, Mouse monoclonal from hybridoma, stated mouse IgG1/Kappa; Used unlabelled as capture and biotin-labelled as detection antibody; also called 21B11D2-biotin) VH: QAQLQQSGAELVRPGASVTLSCKASGYIFTDYEMHWVKQTPVHGLEWIGAIDPETGGTAYNQKFKGKARLTADKSSSTAYMELRSLTSEDSAVYYCTIYYTNHFDYWGQGTTLTVSS VL: DVVMTQTPLSLPVSLGDQASISCRSSQSLVYSNGDTYLYWYLQKPGQSPKLLIYKVSNRFSGVPDRFSGSGSGTDFTLKISRVEAEDLGVYFCSQSTHVPLTFGAGTKLELKR")
0.065
>>> result("antibody 11D11B11 (antibody, mouse IgG2a, kappa, V domains shown, Mouse monoclonal from hybridoma, stated mouse IgG1/Kappa; Used unlabelled as capture and biotin-labelled as detection antibody; also called 11D11B11-biotin) VH: DVKLVESGGGLVKPGGSLKLSCAASGFTFSSFSMSWFRQTPDKRLEWVATISSGGSSTYYPDSVKGRFTISRDNAKNTLYLQMTSLKSEDTAIFYCRGGYYGNYDPLDYWGQGTSVTVSA VL: DIVMIQSQKFMSTSVGDRVSITCTASHNVDSNVAWYQQKPGQSPQALIYSASYRYSGVPDRFTGSGSGTDFTLTINNVQSEDLAEYFCQQYNSYPLTFGGGTRLEIKR")
0.064
>>> result("antibody 4H8F1 (antibody, V domains shown, Mouse monoclonal from hybridoma, stated mouse IgG1/Kappa; also called 4H8F1-biotin; Antibody 1) VH: QVTLKESGPGILQPSQTLSLTCSFSGFSLSTSGMSVGWIRQPSGKGLEWLAHIWWNDDKFYNPALKSRLTISKDTSKNQIFLKIASVVTADSATYYCARIEEGWFAYWGQGTLVTVST VL: SIVMTQTPKFLLVSVGDRVTITCKASQTMSNDVAWYQQKPGQSPKLLIYYASNRYTGVPDRFTGSGYGTDFTFTISTVQAEDLAVYFCQQDYSSPLTFGAGTKLELKR")
4.24
>>> result("antibody 12F12A10 (antibody, V domains shown, Mouse monoclonal from hybridoma, stated mouse IgG1/Kappa; also called 12F12A10-biotin; Antibody 2) VH: QVQLQQSATELARPGASVKMSCKASGYTFTSYMMHWVKQRPGQGLEWIGYINPSSGYTDYNQKFKDKTTLTADKSSSTAYMQLSSLTSEDSAVYYCARYRYPHYFDYWGQGTTLTVSS VL: QIVLTQSPAIMSASPGEKVTMTCSASSSVSYIHWYQQKSGTSPKRWIYDTSKLASGVPARFSGSGSGTSYSLTISSMEAEDAAIYYCQQWSSNPPTFGAGTKLELKR")
4.22
